The origin of these recorded values is a melting point compilation (Tetko et al.; mined from patent text by program, amines drawn as free bases though some values may be those of a salt).

Entries and their melting point values follow.

[
  {
    "Compound": "Cc1cccc2c(Nc3cc(CO)cc(NC(=O)Nc4ccc(N(CCCl)CCCl)cc4)c3)c3ccccc3nc12",
    "melting point": "251 to 252 °C"
  },
  {
    "Compound": "Cc1c(C(=O)Cl)c(C)c2cccc(C)c2c1C",
    "melting point": "216 °C"
  },
  {
    "Compound": "CC(=O)Nc1ccc2c(c1)CCC(=CN(C)C)C2=O",
    "melting point": "207 to 210 °C"
  },
  {
    "Compound": "O=C(O)CN1C(=O)C(NC(=O)[C@@H](S)Cc2ccccc2)CCC2CC=CC=C21 (some centres undefined)",
    "melting point": "107 to 111 °C"
  },
  {
    "Compound": "CN(C(=O)c1ccccc1N)c1ccccc1",
    "melting point": "127 °C"
  },
  {
    "Compound": "CC(C)C(=O)c1cn(Cc2c(F)cccc2F)c2sc(-c3ccc(NC(=O)C(C)(C)O)cc3)c(CN(C)Cc3ccccc3)c2c1=O",
    "melting point": "178 to 180 °C"
  },
  {
    "Compound": "COc1cc(OCc2ccccn2)ccc1/C=C/c1cc(/C=C/c2cc3ccccc3o2)n[nH]1",
    "melting point": "199 to 201 °C"
  },
  {
    "Compound": "O=C(C=CC=Cc1ccccc1)c1cccc([N+](=O)[O-])c1",
    "melting point": "58 to 60 °C"
  },
  {
    "Compound": "CCOC(=O)c1cn(-c2csnn2)c2nc(Cl)c(F)cc2c1=O",
    "melting point": "188 to 192 °C"
  }
]
